Reference for the values: ChEMBL document CHEMBL5335846

- Tested on: MHCC97H
- assay-explanation: Cytotoxicity against human MHCC97H cells assessed as inhibition of cell growth incubated for 24 hrs by MTT assay
- Assay type: functional, cell-based
assay-metric: IC50 (µM)

1. O=C1C=CC[C@@H]([C@@H](O)[C@H](Oc2c(O)cc3c(c2O)C(=O)C[C@@H](c2ccccc2)O3)c2ccccc2)O1; 41
2. CNC(=O)c1cc(Oc2ccc(NC(=O)Nc3ccc(Cl)c(C(F)(F)F)c3)cc2)ccn1; 15

* * *

- System: MHCC97H
- assay-explanation: Cytotoxicity against human MHCC97H cells assessed as inhibition of cell growth incubated for 24 hrs by MTT assay
- Assay type: functional, cell-based
pIC50: −log10 of the molar value.
Let's look at some molecules and their measured pIC50.
assay-metric: pIC50

1) O=C1C=CC[C@H]([C@H](O)[C@H](c2ccccc2)c2c(O)cc3c(c2O)C(=O)C[C@@H](c2ccccc2)O3)O1; < 4.00
2) O=C1C=CC[C@@H]([C@@H](O)[C@@H](c2ccccc2)c2c(O)cc3c(c2O)C(=O)C[C@@H](c2ccccc2)O3)O1; 4.20
3) O=C1C=CC[C@@H]([C@H](O)[C@@H](c2ccccc2)c2c(O)cc(O)c3c2O[C@H](c2ccccc2)CC3=O)O1; < 4.00
4) O=C1C=CC[C@H]([C@@H](O)[C@@H](c2ccccc2)c2c(O)cc(O)c3c2O[C@H](c2ccccc2)CC3=O)O1; < 4.00
5) O=C1C=CC[C@H]([C@@H](O)[C@H](c2ccccc2)c2c(O)cc3c(c2O)C(=O)C[C@@H](c2ccccc2)O3)O1; < 4.00
